# target-under-test: T1, human CD86-murine Ig fusion protein (human)
# T1 construct: Bought (Ancell #509-820); also called hCD86-mIg
# T1 chain: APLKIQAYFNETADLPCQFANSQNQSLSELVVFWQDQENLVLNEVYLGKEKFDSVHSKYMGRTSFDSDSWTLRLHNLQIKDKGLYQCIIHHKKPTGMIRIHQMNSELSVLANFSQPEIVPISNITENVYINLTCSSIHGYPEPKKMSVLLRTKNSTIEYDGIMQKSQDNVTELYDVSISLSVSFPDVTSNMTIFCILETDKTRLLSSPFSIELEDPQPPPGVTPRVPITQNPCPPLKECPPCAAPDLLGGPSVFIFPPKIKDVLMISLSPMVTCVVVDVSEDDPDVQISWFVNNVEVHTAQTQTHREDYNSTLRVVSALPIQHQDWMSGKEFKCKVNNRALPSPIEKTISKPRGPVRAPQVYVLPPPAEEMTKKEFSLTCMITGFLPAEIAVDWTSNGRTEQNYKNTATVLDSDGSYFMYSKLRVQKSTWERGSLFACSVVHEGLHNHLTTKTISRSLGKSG
# protocol-details: SPR Biacore, hCD86-mIg captured
measured-property: Kd

// below: answered binders
D3-6-IgG2 (Fc fusion, also called D3-06-IgG2) MHVAQPAVVLASSRGIASFVCEYESPGKANEIRVTVLRQAGSQVTEVCAMTYMMGDELTFLDDPSCTGTFSGNQVNLTIQGLRAADTGLYICKVELMYPPPYYLGFGNGTQIYVIDPEPCPDSDERKCCVECPPCPAPPVAGPSVFLFPPKPKDTLMISRTPEVTCVVVDVSHEDPEVQFNWYVDGVEVHNAKTKPREEQFNSTFRVVSVLTVVHQDWLNGKEYKCKVSNKGLPAPIEKTISKTKGQPREPQVYTLPPSREEMTKNQVSLTCLVKGFYPSDIAVEWESNGQPENNYKTTPPMLDSDGSFFLYSKLTVDKSRWQQGNVFSCSVMHEALHNHYTQKSLSLSPG; 0.131 to 0.262 nM
D3-8-IgG2 (Fc fusion) MHVAQPAVVLASSRGIASFVCEYESPGKANEIRVTVLRQAGSQVTEVCAMTYMKGDELTFLDDSSCTGTFSGNQVNLTIQGLRAADTGLYICKVELMYPPPYYLGFGNGTQIYVIDPEPCPDSDERKCCVECPPCPAPPVAGPSVFLFPPKPKDTLMISRTPEVTCVVVDVSHEDPEVQFNWYVDGVEVHNAKTKPREEQFNSTFRVVSVLTVVHQDWLNGKEYKCKVSNKGLPAPIEKTISKTKGQPREPQVYTLPPSREEMTKNQVSLTCLVKGFYPSDIAVEWESNGQPENNYKTTPPMLDSDGSFFLYSKLTVDKSRWQQGNVFSCSVMHEALHNHYTQKSLSLSPG; 0.131 to 0.262 nM
D3-66-IgG2 (Fc fusion) MHVAQPAVVLASSRGIASFVCEYASPGKANEVRVTVLRQADSQVTEVCAMTYMKGDELTFLDDPICTGTFSGNQVNLTIQGLRAMDTGLYICKVELMYPPPYYEGIGNGTQIYVIDPEPCPDSDERKCCVECPPCPAPPVAGPSVFLFPPKPKDTLMISRTPEVTCVVVDVSHEDPEVQFNWYVDGVEVHNAKTKPREEQFNSTFRVVSVLTVVHQDWLNGKEYKCKVSNKGLPAPIEKTISKTKGQPREPQVYTLPPSREEMTKNQVSLTCLVKGFYPSDIAVEWESNGQPENNYKTTPPMLDSDGSFFLYSKLTVDKSRWQQGNVFSCSVMHEALHNHYTQKSLSLSPG; < 0.131 nM
D3-15-IgG2 (Fc fusion) MHVAQPAVVLASSRGIASFVCEYESPGKANEIRVTVLRQADSQVTEVCAMTYMKGDELTFLDDPSCTGTFSGNQVNLTIQGLRAMDTGLYICKVELMYPPPYYLGFGNGTQIYVIDPEPCPDSDERKCCVECPPCPAPPVAGPSVFLFPPKPKDTLMISRTPEVTCVVVDVSHEDPEVQFNWYVDGVEVHNAKTKPREEQFNSTFRVVSVLTVVHQDWLNGKEYKCKVSNKGLPAPIEKTISKTKGQPREPQVYTLPPSREEMTKNQVSLTCLVKGFYPSDIAVEWESNGQPENNYKTTPPMLDSDGSFFLYSKLTVDKSRWQQGNVFSCSVMHEALHNHYTQKSLSLSPG; < 0.131 nM
D21-IgG2 (Fc fusion) MHVAQPAVVLASSRGIASFVCEYSAPHNADEIRVTVLRKASSQVTEVCAMTYMEEDELTFLDDPTCTGTFSGNQVNLTIQGLRAVDTGLYICKVELMYPPPYYLGFGNGTQIYVIDPEPCPDSDERKCCVECPPCPAPPVAGPSVFLFPPKPKDTLMISRTPEVTCVVVDVSHEDPEVQFNWYVDGVEVHNAKTKPREEQFNSTFRVVSVLTVVHQDWLNGKEYKCKVSNKGLPAPIEKTISKTKGQPREPQVYTLPPSREEMTKNQVSLTCLVKGFYPSDIAVEWESNGQPENNYKTTPPMLDSDGSFFLYSKLTVDKSRWQQGNVFSCSVMHEALHNHYTQKSLSLSPG; 0.131 to 0.262 nM

For this binder ( D23-IgG2 (Fc fusion) MHVAQPAVVLASSRGIASFVCEYSAPHNAAEIRVTVLRKAGSQVTEVCAMTYMKEDELTFLDDPSCTGTFSGNQVNLTIQGLRAADTGLYICKVELMYPPPYYLGLGNGTQIYVIDPEPCPDSDERKCCVECPPCPAPPVAGPSVFLFPPKPKDTLMISRTPEVTCVVVDVSHEDPEVQFNWYVDGVEVHNAKTKPREEQFNSTFRVVSVLTVVHQDWLNGKEYKCKVSNKGLPAPIEKTISKTKGQPREPQVYTLPPSREEMTKNQVSLTCLVKGFYPSDIAVEWESNGQPENNYKTTPPMLDSDGSFFLYSKLTVDKSRWQQGNVFSCSVMHEALHNHYTQKSLSLSPG ), measured Kd is < 0.131 nM

For this binder ( D3-39-IgG2 (Fc fusion) MHVAQPAVVLASSRGIASFVCEYESPGKANEVRVTVLRQADSQVTEVCAMTYMKGNELTFLDDPICTGTFSGNQVNLTIQGLRAMDTGLYICKVELMYPPPYYLGIGNGTQIYVIDPEPCPDSDERKCCVECPPCPAPPVAGPSVFLFPPKPKDTLMISRTPEVTCVVVDVSHEDPEVQFNWYVDGVEVHNAKTKPREEQFNSTFRVVSVLTVVHQDWLNGKEYKCKVSNKGLPAPIEKTISKTKGQPREPQVYTLPPSREEMTKNQVSLTCLVKGFYPSDIAVEWESNGQPENNYKTTPPMLDSDGSFFLYSKLTVDKSRWQQGNVFSCSVMHEALHNHYTQKSLSLSPG ), measured Kd is 0.262 to 0.523 nM
